Value source: paper PMC10714399

Assay: Human plasma protein binding (PPB)
Format: in vitro ADME
Details: human, plasma, human plasma, NEU; read-out: Human PPB (NEU) (converted)
Outcome label depends on fraction unbound relative to 0.02: at/above gives 1.0, below gives 0.0.

# example entries with known answers
{"smilesString": "c1cc(-c2nc3n(c2-c2ccc4occc4c2)CCC3)ccn1", "cat": 0.0}
{"smilesString": "CC(C)CN(c1ccc(F)cc1)c1c(-c2ccccn2)nc2ccccn12", "cat": 0.0}

Query block: API: above_or_equal(metric=fraction unbound, cutoff=0.02) for item c1ccc(-c2c(-c3ccccn3)nc3n2CCC3)cc1
Result block: 1.0

Query block: Check if fraction unbound >= 0.02 (inclusive). Item: COc1ccnc(-c2nc3ccccn3c2N(C)c2ccc(F)cc2)c1
Result block: 1.0

Query block: Confirm if fraction unbound reported for the compound COc1ccn2c(-c3ccccc3)c(-c3ccccn3)nc2c1 is 0.02 or above.
Result block: 1.0

Query block: Entry Clc1ccc(-c2c(-c3ccccn3)nc3n2CCC3)cc1 : is its fraction unbound no less than 0.02?
Result block: 1.0

Query block: In plain terms: is recorded fraction unbound at least 0.02 for CCCN(c1ccc(F)cc1)c1c(-c2ccccn2)nc2ccccn12 ?
Result block: 0.0

Query block: Is the recorded value of fraction unbound equal to or greater than 0.02 for this compound? Cc1nc2cc(-c3c(-c4ccccn4)nc4n3CCC4)ccc2s1
Result block: 1.0

Query block: // inclusive: fraction unbound at least 0.02? input: c1cncc(-c2nc3n(c2-c2ccc4occc4c2)CCC3)c1
Result block: 0.0

Query block: Given COc1cccn2c(N(C)c3ccc(F)cc3)c(-c3ccccn3)nc12 , state whether its fraction unbound is at least 0.02.
Result block: 1.0

* * *

Each item that follows carries a reported solubility.
Assay: Aqueous solubility
Assay type: physicochemical
Conditions: thermodynamic from solid; NEU; read-out: Aqueous Solubility (NEU)
Value expressed in µM; do not type the unit.

{"compound": "[2H]C([2H])([2H])N(c1ccc(F)cc1)c1c(-c2ccccn2)nc2ccccn12 [OSA_001002]", "units": "µM", "quantitativeResult": 116}

Query block: What value of solubility has been recorded for this entry: N#Cc1cccc(-c2c(-c3ccccn3)nc3n2CCC3)c1 [OSA_000864]
Result block: 37

Query block: Entry FC(F)(F)Oc1ccc(-c2c(-c3ccccn3)nc3n2CCC3)cc1 [OSA_000868] has what solubility?
Result block: 38

Query block: Reported solubility for c1ccc(-c2c(-c3ccccn3)nc3n2CCC3)cc1 [OSA_000870] : what is it?
Result block: 179

Query block: Which solubility reading was recorded for the compound COc1ccn2c(-c3cccc(Cl)n3)c(-c3ccccn3)nc2c1 [OSA_000857] ?
Result block: 37

* * *

Assay: Human plasma protein binding (PPB)
Type: in vitro ADME
Conditions: human, plasma, human plasma, NEU; read-out: Human PPB (NEU) (converted)
Method: To guide our initial SAR exploration work, we obtained liver microsomal intrinsic clearance data for 5 of the 18 compounds assayed by CO-ADD (Supporting Information - CDCO Report and Supporting Information - Biology). […] ADME and toxicity for compounds were measured according to procedures outlined in the manuscript submitted in parallel to this one;2 other procedures were used for those compounds analysed by Monash University (in vitro ADME) or UCL (toxicity), both described in the main
Please note: 1 applies when fraction unbound is 0.02 or greater, and -1 applies otherwise.

Please review the entries below; each comes with its answer.
{"compound": "CS(=O)(=O)c1ccc(-c2c(-c3ccccn3)nc3n2CCC3)cc1", "cat": 1}
{"compound": "C[S+]([O-])c1ccc(-c2c(-c3ccccn3)nc3n2CCC3)cc1 (stereo not drawn)", "cat": 1}
{"compound": "Clc1ccc(-c2c(-c3ccccn3)nc3n2CCC3)cc1Cl", "cat": -1}
{"compound": "CN(C)C(=O)c1ccc(-c2c(-c3ccccn3)nc3n2CCC3)cc1", "cat": 1}
{"compound": "COc1ccc(-c2nc3ccc(OC)cn3c2N(C)c2ccc(F)cc2)nc1", "cat": -1}

Query block: Quick check: does Fc1ccc(N(CC2CC2)c2c(-c3ccccn3)nc3ccccn23)cc1 have fraction unbound greater than or equal to 0.02?
Result block: -1

Query block: Determine whether measured fraction unbound meets or exceeds 0.02 for CCN(c1ccc(F)cc1)c1c(-c2ccccn2)nc2ccccn12
Result block: 1

Query block: Answer whether fraction unbound of COc1ccn2c(-c3cccc(Cl)n3)c(-c3ccccn3)nc2c1 is greater than or equal to 0.02.
Result block: 1
